As shown below, each of these binders has a reported Kd value.
biological target: T1, human CD8α/β (human, UniProt P01732 22-182; P10966 22-170); test: SPR, antibody captured on Protein A chip, hCD8α/β as analyte, 1:1 fit
T1 construct: Soluble heterodimer used in SPR and in the Carterra binning (there printed only as CD8α/β); also called hCD8α/β
T1 sequence (P01732 22-182, chain 1 of 2): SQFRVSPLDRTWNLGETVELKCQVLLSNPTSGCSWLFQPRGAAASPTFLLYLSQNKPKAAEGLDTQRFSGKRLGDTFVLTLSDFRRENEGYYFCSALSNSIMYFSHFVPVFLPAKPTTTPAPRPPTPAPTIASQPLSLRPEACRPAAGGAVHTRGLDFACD
T1 sequence (P10966 22-170, chain 2 of 2): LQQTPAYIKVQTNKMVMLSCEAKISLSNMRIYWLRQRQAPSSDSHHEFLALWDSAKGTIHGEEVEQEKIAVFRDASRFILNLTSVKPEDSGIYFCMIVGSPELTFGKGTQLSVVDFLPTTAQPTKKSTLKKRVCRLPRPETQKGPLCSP
Respond numerically; units are nM and should not be typed.

Per the record, humanized 02A01-VH4-VK3 (antibody, human IgG1, V domains shown, human IgG1 format; also called 02-VH4/VK3) VH: EVQLVQSGAEVKKPGATVKISCKASGYTFTDFTMHWVQQAPGKGLEWIGLVNPNNGGNIYAEKFQGRATLTVDTSTSTAYMELSSLRSEDTAVYYCGRVPLYTSHGMDYWGQGTLVTVSS VL: EIVLTQSPATLSLSPGERATISCRASESVDSYDINSMHWYQQKPGQAPRLLIYRASHLQSGIPARFSGSGSRTDFTLTISSLEPEDFATYYCQQSNEDPLTFGQGTKLEIK has Kd of 19.8

So, humanized 02A01-VH4-VK2 (antibody, human IgG1, V domains shown, human IgG1 format; also called 02-VH4/VK2) VH: EVQLVQSGAEVKKPGATVKISCKASGYTFTDFTMHWVQQAPGKGLEWIGLVNPNNGGNIYAEKFQGRATLTVDTSTSTAYMELSSLRSEDTAVYYCGRVPLYTSHGMDYWGQGTLVTVSS VL: EIVLTQSPATLSVSPGERATISCRASESVDSYDINSMHWYQQKPGQAPRLLIYRASHLQSGIPARFSGSGSRTDFTLTISSVEPEDFATYYCQQSNEDPLTFGQGTKLEIK ? Its Kd was 19.5

Values compiled from patent US20260055186A1.
